system: NCI-H23 lung; experiment: NCI-60 one-dose screen, 48 h; settings: 10 µM unless noted
The panel holds about 83,000 compounds, 20% with a hit somewhere; the sample as a whole holds those more often. Calls of active or inactive are those of the source. Rule for the calls: active = growth percent below 10; inactive = the rest.
// classify into true for active, false for inactive

Before answering, review these 6 worked examples.
CCOC(=O)c1cn2c3c(cc(F)cc3c1=O)C(CC)c1ccccc1C2 (stereo not given)    false
COc1cccc(C2CC(=O)Nc3cc4c(cc32)CCC4)c1OC (stereo not given)    false
Cc1ccccc1-n1nnc(C(=O)Nc2ccc(-c3ccccc3)cn2)c1C    false
O=S(=O)(Nc1ccc(Cl)c(Cl)c1)c1ccc(-c2cnc(C3CC3)o2)cc1    false
CCN1C(=O)C2(Nc3ccccc3S2)c2cc(C)ccc21 (stereo not given)    false
O=c1c2c(=NCCN3CCCC3)cc3c(=O)n(CCCN4CCOCC4)c(=O)c4ccc(c(O)n1CCCN1CCOCC1)c2c4-3    true

Input line: Recorded call for CCCCCn1c(=N)n(CC(O)COc2cccc(C)c2)c2ccccc21 (stereo not given) ?
Output line: true

# credit: PubChem BioAssay (NCI)
